Target or system rat 5-HT7a receptor (Rattus norvegicus): recorded Ki listed per item.
Where a name gives a salt, the structure may show the parent alone.
MEASUREMENT_KIND: Ki

{"columns": ["COMPOUND", "MEASUREMENT_KIND", "OBS_VALUE"],
 "data": [
  ["Cc1ccc(-c2nc(Cc3ccccc3)nc3c2CCN(C)CC3)cc1", "Ki", "0.25 µM"],
  ["Cc1cc(-c2nc(C(C)C)nc3c2CCN(Cc2ccccc2)C3)cs1 [Example 86, hydrochloride]", "Ki", "9 µM"],
  ["CN1CCc2c(nc(Cc3ccccc3)nc2-c2ccc(F)cc2)C1 [Example 82, hydrochloride]", "Ki", "> 10 µM"],
  ["CC(C)Cc1nc2c(c(-c3ccncc3)n1)CNCC2", "Ki", "> 10 µM"],
  ["Cc1cc(-c2nc(CC(C)C)nc3c2CNCC3)ccc1F", "Ki", "> 10 µM"],
  ["Fc1ccc(-c2nc(Cc3ccccc3)nc3c2CNCCC3)cc1 [Example 69, hydrochloride]", "Ki", "> 10 µM"],
  ["Fc1ccc(-c2nc(Cc3ccccc3)nc3c2CNCC3)cc1", "Ki", "> 10 µM"],
  ["CC(C)c1nc(-c2ccsc2)c2c(n1)C(C)CN(Cc1ccccc1)C2 (stereo not drawn)", "Ki", "> 10 µM"],
  ["CC(C)c1nc2c(c(-c3ccccc3)n1)CCCNC2", "Ki", "> 10 µM"],
  ["COc1ccc(-c2nc(C3CCCC3)nc3c2CCNCC3)cc1", "Ki", "0.04 µM"],
  ["Cc1ccc(-c2nc(C(C)C)nc3c2CCCNC3)cc1 [Example 66, hydrochloride]", "Ki", "0.3 µM"],
  ["Fc1cccc(-c2nc(Cc3ccccc3)nc3c2CNCC3)c1", "Ki", "> 10 µM"]
]}

src = patent US7598255B2
